Origin of measurements: patent US8841312B2

# Target Or System: Cdk6/CyclinD3 (Homo sapiens (Human))
# Assay Overview: Cdk6 kinase inhibition assay with recombinant Cdk6/CyclinD3, Rb substrate, [33P]-ATP filter plate
# Assay Context: 25 μM ATP, read-out: Cdk 6 IC50
Value Kind: IC50 (µM)

| Molecule | IC50 / µM |
| --- | --- |
| O[C@@H]1CCCN(c2ccc(Nc3ncc4c5ccncc5n(C5CCCC5)c4n3)nn2)C1 [Example 104] | 0.014 |

(P) OC1CCN(c2ccc(Nc3ncc4c5ccncc5n(C5CCCC5)c4n3)nn2)CC1 [Example 102]
(Q) c1cc2c3cnc(Nc4ccc(NC5CCNCC5)cn4)nc3n(C3CCCC3)c2cn1 [Example 69]
(R) CN(C)C1CCN(c2ccc(Nc3ncc4c5ccnc(Cl)c5n(C5CCCC5)c4n3)nc2)CC1 [Example 153]
(S) Cc1nccc2c3cnc(Nc4ccc(N5CCNCC5)cn4)nc3n(C3CCCC3)c12 [Example 54]
query: Ordering: ascending IC50. The response must list the labels following the requested ordering.
result: R, P, Q, S

(a) c1cc2c3cnc(Nc4ccc(N5CCNCC5)cn4)nc3n(C3CCCC3)c2nn1 [Example 200]
(b) c1ccc(-n2c3cnccc3c3cnc(Nc4ccc(N5CCNCC5)cn4)nc32)cc1 [Example 14]
query: When a and b are compared, which has the higher number for IC50? Answer format: the label of the selected item.
result: a
(a: 0.013 µM, b: 0.008 µM)

----------
# Target Or System: Cdk6/CyclinD3 (Homo sapiens (Human), UniProt Q00534)
# Sequence (Q00534 whole entry): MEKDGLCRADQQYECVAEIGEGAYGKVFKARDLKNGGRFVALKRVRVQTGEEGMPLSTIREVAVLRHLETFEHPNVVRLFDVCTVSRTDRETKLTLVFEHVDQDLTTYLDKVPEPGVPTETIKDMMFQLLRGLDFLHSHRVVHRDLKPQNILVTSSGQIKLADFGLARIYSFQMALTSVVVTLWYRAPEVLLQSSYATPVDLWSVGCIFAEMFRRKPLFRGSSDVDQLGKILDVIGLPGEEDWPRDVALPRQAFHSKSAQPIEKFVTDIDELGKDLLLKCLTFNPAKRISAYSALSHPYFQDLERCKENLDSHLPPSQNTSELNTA
# Sequence (P30281 whole entry partner): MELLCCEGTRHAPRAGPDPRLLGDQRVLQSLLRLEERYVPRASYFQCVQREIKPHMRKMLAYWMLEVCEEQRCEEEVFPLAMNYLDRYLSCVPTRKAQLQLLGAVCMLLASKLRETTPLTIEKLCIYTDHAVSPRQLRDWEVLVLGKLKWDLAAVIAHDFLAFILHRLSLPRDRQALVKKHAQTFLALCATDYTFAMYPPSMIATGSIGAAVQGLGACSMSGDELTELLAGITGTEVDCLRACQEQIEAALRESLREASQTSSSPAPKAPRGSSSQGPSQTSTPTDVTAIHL
# Assay Overview: Cdk6 kinase inhibition assay with recombinant Cdk6/CyclinD3, Rb substrate, [33P]-ATP filter plate
# Assay Context: 25 μM ATP, read-out: Cdk 6 IC50
Value Kind: IC50 (nM)

| Molecule | Value Kind | Unit Annotation | Numeric Result |
| --- | --- | --- | --- |
| CC[C@@H](C)n1c2cnccc2c2cnc(Nc3ccc(N4CCN[C@@H](C)C4)nn3)nc21 [Example 317] | IC50 | nM | 21 |

(1) O[C@H]1CCN(c2ccc(Nc3ncc4c5ccncc5n(C5CCCC5)c4n3)nn2)C1 [Example 19]
(2) CCNC1CCN(c2ccc(Nc3ncc4c5ccncc5n(C5CCCC5)c4n3)nc2)CC1 [Example 464]
query: Record comparison, field IC50: mark the lower of 1 and 2 . Reply with the label of the item you choose.
result: 2
(2: 3.1 nM, 1: 10 nM)

----------
# Target Or System: Cdk6/CyclinD3 (Homo sapiens (Human))
# Assay Overview: Cdk6 kinase inhibition assay with recombinant Cdk6/CyclinD3, Rb substrate, [33P]-ATP filter plate
# Assay Context: 25 μM ATP, read-out: Cdk 6 IC50
Value Kind: IC50 (nM)

Illustrative cases are given below, each with its answer.
| Smiles Repr | Numeric Result |
| --- | --- |
| NC1CCN(c2ccc(Nc3ncc4c5ccncc5n(C5CCCC5)c4n3)nc2)CC1 | 10 |
| c1cc2c3cnc(Nc4ccc(N5CCNCC5)cc4)nc3n(C3CCCC3)c2cn1 | 2.9 |
| CC[C@@H](C)n1c2cnccc2c2cnc(Nc3ccc(N4CCC(NC)CC4)cn3)nc21 | 42 |
| c1ccc2c(c1)c1cnc(Nc3ccc(N4CCNCC4)cc3)nc1n2C1CCCC1 | 3.7 |

(A) CC[C@@H](C)n1c2cnccc2c2cnc(Nc3ccc(N4CCC(NC)CC4)nn3)nc21
(B) OCCCn1c2cnccc2c2cnc(Nc3ccc(N4CCNCC4)nn3)nc21
query: Which of the two gives a bigger number for IC50: A or B ? Identify your pick by its label.
result: B

----------
# Target Or System: Cdk6/CyclinD3 (Homo sapiens (Human), UniProt Q00534)
# Assay Overview: Cdk6 kinase inhibition assay with recombinant Cdk6/CyclinD3, Rb substrate, [33P]-ATP filter plate
# Assay Context: 25 μM ATP, read-out: Cdk 6 IC50
Value Kind: IC50 (nM)

| Molecule | Unit Annotation | IC50 |
| --- | --- | --- |
| CCN(CCO)C1CCN(c2ccc(Nc3ncc4c5ccncc5n(C5CCCC5)c4n3)nc2)CC1 [Example 473] | nM | 28 |

(P) c1cc2c3cnc(Nc4ccc(C5CCNCC5)cn4)nc3n(C3CCCC3)c2cn1 [Example 257]
(Q) c1cc2c3cnc(Nc4ccc(N5CCNCC5)cn4)nc3n(CC3CCCCC3)c2cn1 [Example 32]
(R) O=C(O)c1ccc(Nc2ncc3c4ccnc(O)c4n(C4CCCC4)c3n2)nc1 [Example 224]
query: Sequence the entries by IC50, beginning with the highest number. Use the labels to give the requested order.
result: R, Q, P
(R: 860 nM, Q: 30.4 nM, P: 5.3 nM)

----------
# Target Or System: Cdk4/CyclinD1 (Homo sapiens (Human), UniProt P11802)
# Sequence (P11802 whole entry): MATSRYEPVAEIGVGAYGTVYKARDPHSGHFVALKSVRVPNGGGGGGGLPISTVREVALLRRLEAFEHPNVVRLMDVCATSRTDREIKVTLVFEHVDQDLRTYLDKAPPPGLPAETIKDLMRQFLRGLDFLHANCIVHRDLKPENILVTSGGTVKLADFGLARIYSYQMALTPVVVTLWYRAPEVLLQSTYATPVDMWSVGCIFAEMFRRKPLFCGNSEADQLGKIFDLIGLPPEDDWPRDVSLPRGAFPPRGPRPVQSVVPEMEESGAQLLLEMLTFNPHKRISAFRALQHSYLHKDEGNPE
# Sequence (P24385 whole entry partner): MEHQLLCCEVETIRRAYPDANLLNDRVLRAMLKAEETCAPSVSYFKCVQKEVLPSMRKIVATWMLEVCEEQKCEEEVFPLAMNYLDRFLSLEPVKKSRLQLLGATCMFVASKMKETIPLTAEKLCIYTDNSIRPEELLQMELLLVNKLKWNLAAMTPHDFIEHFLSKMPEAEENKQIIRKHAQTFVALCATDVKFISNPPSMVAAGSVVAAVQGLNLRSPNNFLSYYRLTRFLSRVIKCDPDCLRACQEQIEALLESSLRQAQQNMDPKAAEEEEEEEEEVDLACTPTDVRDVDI
# Assay Overview: Cdk4 kinase inhibition assay with recombinant Cdk4/CyclinD1, Rb substrate, [33P]-ATP filter plate
# Format: biochemical
# Assay Context: 25 μM ATP, read-out: Cdk 4 IC50
Value Kind: IC50 (nM)

| Molecule | Numeric Result |
| --- | --- |
| CC[C@H](C)n1c2cnccc2c2cnc(Nc3ccc(N4CCNCC4)nn3)nc21 | 390 |
| CCC(CC)n1c2cnccc2c2cnc(Nc3ccc(N4CC[C@@H](O)C4)nn3)nc21 | 10000 |

(A) c1cc2c3cnc(Nc4ccc(NCC5CCCCN5)nn4)nc3n(C3CCCC3)c2cn1 (stereo not shown)
(B) C[C@H]1CN(c2ccc(Nc3ncc4c5ccncc5n([C@H]5CCC[C@H]5O)c4n3)nc2)CCN1
query: Which entry shows the lesser value of IC50 here, A or B ? Please identify the chosen entry by its label.
result: A
(A: 4.9 nM, B: 71 nM)

----------
# Target Or System: Cdk4/CyclinD1 (Homo sapiens (Human))
# Assay Overview: Cdk4 kinase inhibition assay with recombinant Cdk4/CyclinD1, Rb substrate, [33P]-ATP filter plate
# Assay Context: 25 μM ATP, read-out: Cdk 4 IC50
pIC50: −log10 of the molar value.
Value Kind: pIC50

(a) CNC1CCN(c2ccc(Nc3ncc4c5ccncc5n([C@H](C)CO)c4n3)nn2)CC1 [Example 386]
(b) Oc1cc2c3cnc(Nc4ccc(N5CCNCC5)cn4)nc3n(C3CCCC3)c2cn1 [Example 43]
(c) COC(=O)CNC1CCN(c2ccc(Nc3ncc4c5ccncc5n(C5CCCC5)c4n3)nc2)CC1 [Example 472]
(d) c1cc2c3cnc(Nc4ccc(OC5CCNCC5)nn4)nc3n(C3CCCC3)c2cn1 [Example 268]
query: Hey, can you sort those compounds up there by pIC50, smallest first? Answer by listing the labels in the order asked for.
result: b, a, c, d
(b: 6.87, a: 7.28, c: 7.62, d: 7.96)

----------
# Target Or System: Cdk6/CyclinD3 (Homo sapiens (Human), UniProt Q00534)
# Assay Overview: Cdk6 kinase inhibition assay with recombinant Cdk6/CyclinD3, Rb substrate, [33P]-ATP filter plate
# Assay Context: 25 μM ATP, read-out: Cdk 6 IC50
Value Kind: IC50 (nM)

| Compound | Unit Annotation | Numeric Result |
| --- | --- | --- |
| CCC(CC)n1c2cnccc2c2cnc(Nc3ccc(N4CCC(N(C)C)CC4)nn3)nc21 [Example 163] | nM | 16 |

(a) c1cc2c3cnc(Nc4ccc(N5CCC(N6CCOCC6)CC5)nn4)nc3n(C3CCCC3)c2cn1 [Example 447]
(b) N#Cc1ccc2c3cnc(Nc4ccc(N5CCNCC5)cn4)nc3n(C3CCCC3)c2c1 [Example 41]
query: For the two items a and b , which reports the higher IC50 value? Output the label that corresponds to your choice.
result: a
(a: 26 nM, b: 7.2 nM)

(A) COc1cc(-c2ccc(Nc3ncc4c5ccncc5n(C5CCCC5)c4n3)nn2)ccn1 [Example 262]
(B) C[C@@H](CO)Nc1ccc(Nc2ncc3c4ccncc4n(C4CCCC4)c3n2)nn1 [Example 296]
(C) CN(C)C1CCN(c2ccc(Nc3ncc4c5ccncc5n(CCCO)c4n3)nc2)CC1 [Example 350]
(D) Oc1ccc(-c2ccc(Nc3ncc4c5ccncc5n(C5CCCC5)c4n3)nn2)cn1 [Example 266]
query: Sequence the entries by IC50, beginning with the highest number. List the labels according to the requested ordering.
result: C, A, B, D

----------
# Target Or System: Cdk4/CyclinD1 (Homo sapiens (Human), UniProt P11802)
# Assay Overview: Cdk4 kinase inhibition assay with recombinant Cdk4/CyclinD1, Rb substrate, [33P]-ATP filter plate
# Assay Context: 25 μM ATP, read-out: Cdk 4 IC50
pIC50: −log10 of the molar value.
Value Kind: pIC50

The cases that follow already have their pIC50 on record.
| Molecule | Value Kind | Numeric Result |
| --- | --- | --- |
| COC1CCN(c2cnc(Nc3ncc4c5ccncc5n(C5CCCC5)c4n3)cn2)C1 (centres unmarked) [Example 87] | pIC50 | 7.37 |
| C[C@@H](CO)NC1CCN(c2ccc(Nc3ncc4c5ccncc5n(C5CCCC5)c4n3)nc2)CC1 [Example 475] | pIC50 | 8.59 |
| CC1(C)CN(c2ccc(Nc3ncc4c5ccncc5n(C5CCC5)c4n3)nc2)CCN1 [Example 343] | pIC50 | 7.36 |
| CN1CCN(c2ccc(Nc3ncc4c5ccccc5n(C5CCCC5)c4n3)nn2)CC1 [Example 301] | pIC50 | 7.51 |
| CN(C)C1CCN(c2ccc(Nc3ncc4c5ccncc5n(C5CCC(C)(C)CC5)c4n3)cn2)CC1 [Example 205] | pIC50 | 8.59 |

(1) CCOC(=O)CN1CCN(c2ccc(Nc3ncc4c5ccncc5n(C5CCCC5)c4n3)nn2)CC1 [Example 217]
(2) C[C@H]1CN(c2ccc(Nc3ncc4c5ccccc5n(C5CCCC5)c4n3)nn2)CCN1 [Example 302]
(3) O=C1COC2(CCN(c3ccc(Nc4ncc5c6ccncc6n(C6CCCC6)c5n4)nn3)CC2)CN1 [Example 250]
query: List from greatest to least pIC50. Would you mind listing the labels in the order asked for?
result: 1, 3, 2
(1: 8.44, 3: 7.80, 2: 7.33)
